- experimental-target: anthranilate phosphoribosyl transferase (PRT) encoded by pCtrp57 (Corynebacterium glutamicum, UniProt P06559)
- Construct: cell enzyme activity
- Sequence (P06559 whole entry): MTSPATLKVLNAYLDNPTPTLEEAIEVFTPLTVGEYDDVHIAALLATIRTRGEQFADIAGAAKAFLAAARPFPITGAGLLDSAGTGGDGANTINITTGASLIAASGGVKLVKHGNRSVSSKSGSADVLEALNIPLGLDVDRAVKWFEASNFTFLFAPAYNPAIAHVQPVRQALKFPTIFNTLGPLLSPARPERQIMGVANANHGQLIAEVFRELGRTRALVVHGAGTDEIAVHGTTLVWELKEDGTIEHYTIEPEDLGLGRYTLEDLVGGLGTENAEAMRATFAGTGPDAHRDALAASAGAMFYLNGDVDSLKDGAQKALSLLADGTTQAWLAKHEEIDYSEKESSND
- experiment-description: PRT activity, inhibition by tryptophan, TA108 strain carrying pCtrp57
- condition-details: read-out: Tryptophan concentration effective for 50% inhibition of the PRT activity
pIC50: −log10 of the molar value.
endpoint-name: pIC50

[[record]]
compound = "N[C@@H](Cc1c[nH]c2ccccc12)C(=O)O [tryptophan]"
measured_number = 2.32


###

- experimental-target: anthranilate synthase (AS) of ATCC 39019 strain (Corynebacterium glutamicum, UniProt P06557)
- Construct: endogenous in cells
- Sequence (P06557 whole entry): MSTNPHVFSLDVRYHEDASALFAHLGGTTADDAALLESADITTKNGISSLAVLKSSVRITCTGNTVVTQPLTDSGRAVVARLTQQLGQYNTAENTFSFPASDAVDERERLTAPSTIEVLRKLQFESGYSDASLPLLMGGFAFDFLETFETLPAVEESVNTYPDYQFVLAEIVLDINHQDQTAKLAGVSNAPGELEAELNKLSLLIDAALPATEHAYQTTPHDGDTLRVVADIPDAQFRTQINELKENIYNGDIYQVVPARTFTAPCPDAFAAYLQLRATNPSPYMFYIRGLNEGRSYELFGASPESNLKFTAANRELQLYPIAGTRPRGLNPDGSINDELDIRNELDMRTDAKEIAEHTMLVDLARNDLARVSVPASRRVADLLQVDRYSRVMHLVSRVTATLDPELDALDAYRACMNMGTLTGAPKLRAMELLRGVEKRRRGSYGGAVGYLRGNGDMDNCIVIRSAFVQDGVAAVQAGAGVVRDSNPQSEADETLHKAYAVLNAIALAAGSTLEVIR
- Sequence (P06558 whole entry partner): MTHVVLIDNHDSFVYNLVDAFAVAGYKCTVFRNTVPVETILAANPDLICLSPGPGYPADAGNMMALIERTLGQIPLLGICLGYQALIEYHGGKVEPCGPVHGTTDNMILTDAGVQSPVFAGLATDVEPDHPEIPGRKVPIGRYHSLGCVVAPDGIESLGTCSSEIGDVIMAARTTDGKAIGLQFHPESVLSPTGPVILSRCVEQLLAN
- experiment-description: AS activity, inhibition by tryptophan, ATCC 39019 strain
- condition-details: read-out: Tryptophan concentration effective for 50% inhibition of the AS activity
endpoint-name: IC50

[[record]]
compound = "N[C@@H](Cc1c[nH]c2ccccc12)C(=O)O [tryptophan]"
endpoint_name = "IC50"
result = "2 µM"

